src = patent US4820694A

tested on: Haemophilus influenzae C.L.; assay: standard agar-dilution MIC assay; type: cell-based; conditions: Haemophilus influenzae
quantity_name: MIC (µg/mL)
Unit µg/mL implied. Number only.

molecule	MIC, µg/mL
CCC1OC(=O)CC(O)C(C)C(OC2OC(C)C(O)C(N(C)C)C2OC(C)=O)C(CC=O)CC(C)C(=O)C=CC(C)=CC1COC1OC(C)C(OC(C)=O)C(OC(=O)COc2ccccc2)C1OC (stereo not drawn) [Compound 37]	16

Consider now this further molecule.
Qu. Requested read-out: MIC. Entry: CCC1OC(=O)CC(O)C(C)C(OC2OC(C)C(OC3CC(C)(O)C(O)C(C)O3)C(N(C)C)C2OC(C)=O)C(CC=O)CC(C)C(=O)C=CC(C)=CC1COC1OC(C)C2OC(=O)OC2C1OC (stereo not drawn) [Compound 48]
Ans. 32

* * *

system: Pasteurella multocida 22A; test: broth-dilution microtiter MIC test; type: cell-based; settings: Pasteurella multocida, 22A; broth-dilution microtiter; read-out: MIC
quantity_name: MIC

Guide cases for MIC, answers given:
molecule	observed_result
CCC1OC(=O)CC(O)C(C)C(OC2OC(C)C(OC3CC(C)(O)C(O)C(C)O3)C(N(C)C)C2OC(C)=O)C(CC=O)CC(C)C(=O)C=CC(C)=CC1COC1OC(C)C(OC(=O)CC(C)C)C(O)C1OC (stereo not shown)	> 50 µg/mL
CCC1OC(=O)CC(O)C(C)C(OC2OC(C)C(OC3CC(C)(O)C(O)C(C)O3)C(N(C)C)C2OC(C)=O)C(CC=O)CC(C)C(=O)C=CC(C)=CC1COC1OC(C)C(OC(=O)COc2ccccc2)C(O)C1OC (stereo not shown)	> 50 µg/mL
CCC1OC(=O)CC(O)C(C)C(OC2OC(C)C(OC3CC(C)(O)C(O)C(C)O3)C(N(C)C)C2OC(C)=O)C(CC=O)CC(C)C(=O)C=CC(C)=CC1COC1OC(C)C(OC(=O)COc2ccccc2)C(OC(=O)COc2ccccc2)C1OC (stereo not shown)	> 50 µg/mL

Consider now this further molecule.
Qu. Requested read-out: MIC. Entry: CCC1OC(=O)CC(O)C(C)C(OC2OC(C)C(O)C(N(C)C)C2O)C(CC=O)CC(C)C(=O)C=CC(C)=CC1COC1OC(C)C(OC(=O)CC(C)C)C(OC(=O)CC(C)C)C1OC (stereo not shown)
Ans. > 50 µg/mL

* * *

test system: Staphylococcus aureus 19C; assay: broth-dilution microtiter MIC test; format: cell-based; conditions: Staphylococcus aureus, 19C
The entries below are paired with their reported MIC.

molecule	measurement_target	observed_result
CCC1OC(=O)CC(O)C(C)C(OC2OC(C)C(O)C(N(C)C)C2O)C(CC=O)CC(C)C(=O)C=CC(C)=CC1COC1OC(C)C2OC(C)(C)OC2C1OC (centres unmarked) [Compound 55]	Staphylococcus aureus 19C	3.12 µg/mL
CCC1OC(=O)CC(O)C(C)C(OC2OC(C)C(O)C(N(C)C)C2O)C(CC=O)CC(C)C(=O)C=CC(C)=CC1COC1OC(C)C2OC(=O)OC2C1OC (centres unmarked) [Compound 51, Lactenocin-3",4"-Carbonate Derivative]	Staphylococcus aureus 19C	1.56 µg/mL
CCC1OC(=O)CC(O)C(C)C(OC2OC(C)C(O)C(N(C)C)C2O)C(CC=O)CC(C)C(=O)C=CC(C)=CC1COC1OC(C)C(OC(C)=O)C(OC(=O)COc2ccccc2)C1OC (centres unmarked) [Compound 38]	Staphylococcus aureus 19C	3.12 µg/mL
CCC1OC(=O)CC(O)C(C)C(OC2OC(C)C(OC3CC(C)(O)C(O)C(C)O3)C(N(C)C)C2OC(C)=O)C(CC=O)CC(C)C(=O)C=CC(C)=CC1COC1OC(C)C(OC(=O)Cc2ccccc2)C(OC(=O)Cc2ccccc2)C1OC (centres unmarked) [Compound 11]	Staphylococcus aureus 19C	50 µg/mL

Qu. Requested read-out: MIC. Entry: CCC1OC(=O)CC(O)C(C)C(OC2OC(C)C(OC3CC(C)(O)C(O)C(C)O3)C(N(C)C)C2OC(C)=O)C(CC=O)CC(C)C(=O)C=CC(C)=CC1COC1OC(C)C(OC(=O)COc2ccccc2)C(O)C1OC (centres unmarked) [Compound 13, 2'-O-Acetyl-4'"-O-phenoxyacetyl-macrocin]
Ans. 3.12 µg/mL

* * *

test system: Mycoplasma synoviae 40A; test: broth-dilution microtiter MIC test; type: cell-based; details: Mycoplasmopsis synoviae, 40A
Sorting guide: entries reporting MIC beneath 2 µg/mL go in the 1 (yes) pile, the rest go in the 0 (no) pile.

Qu. # TODO verify MIC < 2 µg/mL strictly for this compound: CCC1OC(=O)CC(O)C(C)C(OC2OC(C)C(O)C(N(C)C)C2O)C(CCOc2ccccc2)CC(C)C(=O)C=CC(C)=CC1COC1OC(C)C2OC(=O)OC2C1OC (centres unmarked) [Compound 53]
Ans. 1 (yes)

Qu. # TODO verify MIC < 2 µg/mL strictly for this compound: CCC1OC(=O)CC(O)C(C)C(OC2OC(C)C(OC3CC(C)(O)C(O)C(C)O3)C(N(C)C)C2OC(C)=O)C(CC=O)CC(C)C(=O)C=CC(C)=CC1COC1OC(C)C(OC(=O)CC(C)C)C(O)C1OC (centres unmarked) [Compound 5, 2'-O-Acetyl-4'"-O-isovaleryl-macrocin]
Ans. 1 (yes)

Qu. # TODO verify MIC < 2 µg/mL strictly for this compound: CCC1OC(=O)CC(O)C(C)C(OC2OC(C)C(O)C(N(C)C)C2OC(C)=O)C(CC=O)CC(C)C(=O)C=CC(C)=CC1COC1OC(C)C(OC(C)=O)C(OC(C)=O)C1OC (centres unmarked) [Compound 23, 2',3",4"-Tri-O-acetyl-lactenocin]
Ans. 0 (no)

Qu. # TODO verify MIC < 2 µg/mL strictly for this compound: CCC1OC(=O)CC(O)C(C)C(OC2OC(C)C(O)C(N(C)C)C2OC(C)=O)C(CC=O)CC(C)C(=O)C=CC(C)=CC1COC1OC(C)C(OC(=O)CC(C)C)C(O)C1OC (centres unmarked) [Compound 25, 2'-O-Acetyl-4"-O-isovaleryl-lactenocin]
Ans. 0 (no)

Qu. # TODO verify MIC < 2 µg/mL strictly for this compound: CCC1OC(=O)CC(O)C(C)C(OC2OC(C)C(O)C(N(C)C)C2OC(C)=O)C(CC=O)CC(C)C(=O)C=CC(C)=CC1COC1OC(C)C(OC(C)=O)C(O)C1OC (centres unmarked) [Compound 21, 2',4"-Di-O-acetyl-lactenocin]
Ans. 0 (no)

* * *

tested on: Mycoplasma synoviae 40A; experiment: broth-dilution microtiter MIC test; type: cell-based; settings: Mycoplasmopsis synoviae, 40A
quantity_name: MIC
Give the figure together with its unit, number first.

Guide cases for MIC, answers given:
compound	MIC
CCC1OC(=O)CC(O)C(C)C(OC2OC(C)C(OC3CC(C)(O)C(O)C(C)O3)C(N(C)C)C2O)C(CC=O)CC(C)C(=O)C=CC(C)=CC1COC1OC(C)C(OC(=O)Cc2ccccc2)C(O)C1OC (stereo not drawn) [Compound 10, 4'"-O-Phenylacetyl-macrocin]	1.56 µg/mL
CCC1OC(=O)CC(O)C(C)C(OC2OC(C)C(OC3CC(C)(O)C(O)C(C)O3)C(N(C)C)C2OC(C)=O)C(CC=O)CC(C)C(=O)C=CC(C)=CC1COC1OC(C)C(OC(C)=O)C(OC(=O)COc2ccccc2)C1OC (stereo not drawn) [Compound 19]	0.78 µg/mL
CCC1OC(=O)CC(O)C(C)C(OC2OC(C)C(O)C(N(C)C)C2O)C(CC=O)CC(C)C(=O)C=CC(C)=CC1COC1OC(C)C2OC(=O)OC2C1OC (stereo not drawn) [Compound 51, Lactenocin-3",4"-Carbonate Derivative]	0.78 µg/mL

Qu. Requested read-out: MIC. Entry: CCC1OC(=O)CC(O)C(C)C(OC2OC(C)C(OC3CC(C)(O)C(O)C(C)O3)C(N(C)C)C2OC(C)=O)C(CC=O)CC(C)C(=O)C=CC(C)=CC1COC1OC(C)C(OC(=O)COc2ccccc2)C(OC(=O)COc2ccccc2)C1OC (stereo not drawn) [Compound 15]
Ans. 3.12 µg/mL

Qu. Requested read-out: MIC. Entry: CCC1OC(=O)CC(O)C(C)C(OC2OC(C)C(O)C(N(C)C)C2OC(C)=O)C(CC=O)CC(C)C(=O)C=CC(C)=CC1COC1OC(C)C(OC(=O)Cc2ccccc2)C(O)C1OC (stereo not drawn) [Compound 29, 2'-O-Acetyl-4"-O-phenylacetyl-lactenocin]
Ans. 0.195 µg/mL

Qu. Requested read-out: MIC. Entry: CCC1OC(=O)CC(O)C(C)C(OC2OC(C)C(OC3CC(C)(O)C(O)C(C)O3)C(N(C)C)C2OC(C)=O)C(CC=O)CC(C)C(=O)C=CC(C)=CC1COC1OC(C)C(OC(C)=O)C(OC(=O)Cc2ccccc2)C1OC (stereo not drawn) [Compound 17]
Ans. 1.56 µg/mL

* * *

test system: Pasteurella multocida 22A; experiment: broth-dilution microtiter MIC test; type: cell-based; details: Pasteurella multocida, 22A; broth-dilution microtiter; read-out: MIC
The entries below are paired with their reported MIC.

compound	MIC
CCC1OC(=O)CC(O)C(C)C(OC2OC(C)C(O)C(N(C)C)C2OC(C)=O)C(CC=O)CC(C)C(=O)C=CC(C)=CC1COC1OC(C)C(OC(=O)COc2ccccc2)C(O)C1OC (stereo not shown) [Compound 33]	12.5 µg/mL
CCC1OC(=O)CC(O)C(C)C(OC2OC(C)C(OC3CC(C)(O)C(O)C(C)O3)C(N(C)C)C2OC(C)=O)C(CC=O)CC(C)C(=O)C=CC(C)=CC1COC1OC(C)C(OC(=O)CC(C)C)C(OC(=O)CC(C)C)C1OC (stereo not shown) [Compound 7]	> 50 µg/mL
CCC1OC(=O)CC(O)C(C)C(OC2OC(C)C(OC3CC(C)(O)C(O)C(C)O3)C(N(C)C)C2OC(C)=O)C(CC=O)CC(C)C(=O)C=CC(C)=CC1COC1OC(C)C(OC(C)=O)C(OC(C)=O)C1OC (stereo not shown) [Compound 3, 2',3'",4'"-Tri-O-acetyl-macrocin]	> 50 µg/mL

Consider now this further compound.
Qu. # query: MIC | item CCC1OC(=O)CC(O)C(C)C(OC2OC(C)C(OC3CC(C)(O)C(O)C(C)O3)C(N(C)C)C2OC(C)=O)C(CC=O)CC(C)C(=O)C=CC(C)=CC1COC1OC(C)C(OC(C)=O)C(OC(=O)COc2ccccc2)C1OC (stereo not shown) [Compound 19] | system: Pasteurella multocida 22A
Ans. > 50 µg/mL
